The measurements presented in this section are drawn from patent US6093744A.

# Target Entity: acyl-CoA: cholesterol acyltransferase (ACAT) (Rattus norvegicus, UniProt Q7TQM4)
# Sequence (Q7TQM4 1-524): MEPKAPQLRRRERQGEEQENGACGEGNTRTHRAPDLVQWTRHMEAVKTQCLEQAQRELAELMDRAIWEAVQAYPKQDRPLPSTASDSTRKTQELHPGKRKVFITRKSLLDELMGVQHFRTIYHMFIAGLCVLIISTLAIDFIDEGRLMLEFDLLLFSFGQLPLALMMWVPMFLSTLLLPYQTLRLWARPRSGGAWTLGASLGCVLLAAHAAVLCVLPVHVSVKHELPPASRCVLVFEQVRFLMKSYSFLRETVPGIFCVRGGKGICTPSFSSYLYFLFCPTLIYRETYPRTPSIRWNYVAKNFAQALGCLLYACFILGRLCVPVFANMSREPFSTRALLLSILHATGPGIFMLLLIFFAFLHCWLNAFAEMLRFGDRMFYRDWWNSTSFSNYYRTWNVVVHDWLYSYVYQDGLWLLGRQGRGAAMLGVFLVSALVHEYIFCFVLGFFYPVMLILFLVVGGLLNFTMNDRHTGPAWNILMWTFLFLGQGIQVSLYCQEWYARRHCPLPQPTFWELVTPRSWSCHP
Structures can show the parent of a compound that is named as a salt.
Here the recorded pIC50 is given for each entry.
Quick note: pIC50 means taking -log10 of the concentration in moles per liter.

| Compound | pIC50 |
| --- | --- |
| CC(C)c1cc(C(C)C)c(CC(=O)NS(=O)(=O)Oc2c(C(C)C)cc(NS(=O)(=O)c3cccs3)cc2C(C)C)c(C(C)C)c1 | 4.51 |
| CC(C)c1cc(C(C)C)c(CC(=O)NS(=O)(=O)Oc2c(C(C)C)cc(CNCc3ccccc3)cc2C(C)C)c(C(C)C)c1 [Example 22, mono hydrochloride] | 4.64 |

The record that follows has no pIC50 shown yet.
What does the record list as pIC50 for CC(C)c1cc(C(C)C)c(CC(=O)NS(=O)(=O)Oc2c(C(C)C)cc(CN3CCN(C)CC3)cc2C(C)C)c(C(C)C)c1 [Example 23, dihydrochloride] ? 4.30
